All values here come from a melting point compilation (Tetko et al.; mined from patent text by program, amines drawn as free bases though some values may be those of a salt).

# key: entry, value: melting point

O=c1[nH]c2ncc(-c3cnc4[nH]cnc4c3)nc2n1CC1CCOCC1
367 to 370 °C
NC(=O)c1ncn2c1[C@@H]1CCN1C(=O)c1c-2cccc1C(F)(F)F
> 300 °C

Per the records, this compound ( CCCn1ccc2c(c1=O)C(c1cccc(Cl)c1Cl)C(C(=O)OCC)=C(C)N2 (configuration not stated) ) has melting point equal to 264 to 265 °C

melting point reported for this compound COc1ccc2c(c1)Sc1ccc(SC)cc1C(O)C2 (configuration not stated) : 122 to 124 °C

Per the records, this compound ( `CC(C)Oc1cc(-n2c(=O)c3c(n(C)c2=O)CCC3)c(F)cc1Cl` ) has melting point equal to 105 to 107 °C

melting point reading for O=C1N[C@H](Cc2ccc(CC(F)(F)C(F)(F)F)cc2)[C@H](c2cccc(Cl)c2)O1 (racemic) : 137 to 138 °C

Memo: `CC(=O)c1ccc(Cl)nc1` , reported melting point: 101 to 102 °C

Quick note, melting point for `OCCc1ccc(CCO)cc1` landed at 83 to 84 °C

Quick note, melting point for `CN=C(ON1C(=O)CCC1=O)c1ccccc1` landed at 119 to 120 °C

response.value for `FC(F)C(F)(F)Sc1nc(-c2ccc(Cl)c(Cl)c2)c(-c2cccs2)[nH]1` (field: melting point) = 178 to 180 °C

Record `Cc1cc(OC/C=C(/c2ccc(Cl)cc2)c2ccc(C#CC(C)(C)C)cc2)ccc1OCC(=O)O` . Reported melting point: 144 to 147 °C

The compound listed as CC(C)C1(C)CC(=O)CC(C)(C)N1 (configuration not stated) shows melting point equal to 47 to 53 °C

Value of melting point reported for the compound `O=c1[nH]c(CCN2CCN(c3ccccc3)CC2)c(-c2ccc(F)cc2)[nH]1` is 232 to 234 °C

Item: `Cc1ccc(CCO)c(NCc2ccc3nc(NCCCN4CCOCC4)n(Cc4ncccc4O)c3c2)c1` | melting point: 192 °C

Query `COc1ccc([N+](=O)[O-])c(NCCC[C@H](N)C(=O)O)c1` yields melting point of 245 to 246 °C

Just so you know, measured melting point for `Cc1c(C(=O)O)oc2c(C(C)(C)C)cc(C(C)(C)C)c(O)c12` came out at 241 to 243 °C

Value of melting point reported for the compound `O=C1C(=Cc2ccncc2)COc2ccccc21` is 132 °C

get_value(item= `O=C(OC1CCN(Cc2ccccc2)CC1)c1ccccc1Br` , readout=melting point) returns 69 to 70 °C

Recorded result, `CC(C)(C)c1ccc(C(=O)Nc2cn3c(CO)cccc3n2)cc1` , melting point: 229 to 230 °C

---

OBSERVATION TYPE: melting point

Here are 3 molecules together with their reported answers.
CCCn1nc(C(C)(F)F)nc1Cc1ccc(-c2ccccc2-c2nnn[nH]2)nc1
200 °C
CSC1=C(c2ccc(O)cc2)C(=O)c2cc(O)cc(O)c21
120 to 123 °C
ON1CCC2(CC1)OC(c1ccccc1)c1ccccc12 (stereo unspecified)
184 to 187 °C

According to the records, this molecule `CC(C)c1c[nH]c(=O)[nH]c1=O` displays melting point of 284 to 286 °C

---

Listed here: items and their measured melting point.

Consider the following illustrative entries.
O=C(c1ccc(F)cc1)N1CCC[C@H](c2nc(-c3ccc4ccccc4c3)no2)C1
142 to 143 °C
CCCCCCCCCCCCCCCCCCSC(C)(C)C(=O)CC(=O)OCC
34 to 37 °C

Consider N#Cc1ccc(CC(NC(=O)OCc2ccccc2)C(=O)Nc2cccc(C(=O)NCCC(=O)OCc3ccccc3)c2)cc1 (racemic) . Its measured melting point is 145 to 146 °C

compound CCCCCCCCCCC(O)COc1ccc(N2CCS(=O)(=O)CC2)cc1 (stereo unspecified) , melting point observed: 84 °C

Note to self: melting point recorded for COc1c(N2C[C@H]3C(CF)C[C@@]3(N)C2)c(F)cc2c(=O)c(C(=O)O)cn([C@@H]3C[C@@H]3F)c12 (stereo partly specified) was 122 to 125 °C
